These measurements were taken from patent US9616064B2.

- SUBJECT OF TEST: ROCK1 (Homo sapiens (Human))
- ASSAY PROTOCOL: Z-lyte FRET assay to measure kinase inhibition, ROCK1
- Assay type: biochemical
- CONDITION CONTEXT: read-out: ROCK1 % inhibition @ 50 μM, 50 μM compound
READOUT NAME: inhibition at 50 µM (%)

Nc1nccc(Nc2ccc(CC(=O)O)cc2)n1; 2
Nc1nccc(Nc2ccc(S(=O)(=O)Nc3ccccc3)cc2)n1; 46
Nc1nccc(Nc2ccc(OC(F)F)cc2)n1; 64
Nc1nccc(-n2ccc3cc(C(=O)NCc4ccccc4)ccc32)n1; 96
Nc1nccc(Nc2ccc([N+](=O)[O-])cc2)n1; 89

1 = CS(=O)(=O)c1ccc(Nc2ccnc(N)n2)cc1
2 = COc1ccc(CNC(=O)c2cccc3c2ccn3-c2ccnc(N)n2)cc1
3 = C[C@H](NC(=O)c1cccc2c1ccn2-c1ccnc(N)n1)c1ccccc1
4 = Nc1nccc(-n2ccc3c(OCCc4ccccc4)cccc32)n1
Please give the order of these compounds when sorted by inhibition at 50 µM, largest value leading. Dear reader, please state the labels in the requested order.
3, 4, 1, 2
(3: 102%, 4: 63%, 1: 38%, 2: 19.4%)

* * *

- SUBJECT OF TEST: ROCK1 (Homo sapiens (Human), UniProt Q13464)
- Sequence (Q13464 whole entry): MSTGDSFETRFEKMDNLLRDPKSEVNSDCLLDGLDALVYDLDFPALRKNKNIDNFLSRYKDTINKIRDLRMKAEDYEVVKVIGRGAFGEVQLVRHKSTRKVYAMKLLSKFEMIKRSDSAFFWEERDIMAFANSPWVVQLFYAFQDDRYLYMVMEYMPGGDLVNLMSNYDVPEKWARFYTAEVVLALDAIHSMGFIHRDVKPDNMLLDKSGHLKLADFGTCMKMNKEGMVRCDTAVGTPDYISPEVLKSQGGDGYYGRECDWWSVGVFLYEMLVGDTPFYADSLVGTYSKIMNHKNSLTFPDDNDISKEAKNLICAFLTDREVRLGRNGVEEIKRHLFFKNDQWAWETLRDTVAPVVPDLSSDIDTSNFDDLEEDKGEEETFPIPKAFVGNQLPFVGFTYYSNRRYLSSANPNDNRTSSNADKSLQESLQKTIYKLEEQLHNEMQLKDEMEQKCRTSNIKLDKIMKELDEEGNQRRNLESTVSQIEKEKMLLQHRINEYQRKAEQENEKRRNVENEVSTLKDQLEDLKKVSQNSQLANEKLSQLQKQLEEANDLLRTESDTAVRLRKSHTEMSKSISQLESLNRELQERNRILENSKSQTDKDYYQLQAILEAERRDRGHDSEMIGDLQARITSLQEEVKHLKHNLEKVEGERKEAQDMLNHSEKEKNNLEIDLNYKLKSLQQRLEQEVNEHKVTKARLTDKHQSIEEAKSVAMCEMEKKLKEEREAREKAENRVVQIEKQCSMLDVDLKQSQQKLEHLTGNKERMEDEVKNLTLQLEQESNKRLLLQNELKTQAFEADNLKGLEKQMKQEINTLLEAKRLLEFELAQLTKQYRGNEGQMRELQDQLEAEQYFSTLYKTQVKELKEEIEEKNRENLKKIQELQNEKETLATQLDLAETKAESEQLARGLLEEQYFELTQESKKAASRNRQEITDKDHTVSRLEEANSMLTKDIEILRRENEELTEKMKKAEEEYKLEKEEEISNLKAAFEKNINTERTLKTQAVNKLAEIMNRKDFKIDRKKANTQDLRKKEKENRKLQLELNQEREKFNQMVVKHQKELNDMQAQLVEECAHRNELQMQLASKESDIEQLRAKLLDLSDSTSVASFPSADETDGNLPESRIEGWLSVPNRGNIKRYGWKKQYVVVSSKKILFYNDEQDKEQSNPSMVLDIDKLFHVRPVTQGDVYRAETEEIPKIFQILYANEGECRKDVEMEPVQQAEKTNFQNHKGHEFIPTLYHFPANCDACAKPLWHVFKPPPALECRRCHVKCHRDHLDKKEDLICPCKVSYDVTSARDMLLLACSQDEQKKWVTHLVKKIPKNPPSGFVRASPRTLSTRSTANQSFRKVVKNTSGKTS
- ASSAY PROTOCOL: Z-lyte FRET assay to measure kinase inhibition, ROCK1
- Assay type: biochemical
- CONDITION CONTEXT: read-out: ROCK1 IC50
pIC50: −log10 of the molar value.
READOUT NAME: pIC50

Some solved entries appear below for comparison.
Nc1nccc(Nc2ccc(S(N)(=O)=O)cc2)n1 [drawing 83]; 4.41
Nc1nccc(N2CCc3ccc(F)cc32)n1; 5.43
Nc1nccc(N2CCc3c(OCc4ccccc4)cccc32)n1; 6.32

a = Nc1nccc(-n2ccc3c(C(=O)NCc4cccc(Cl)c4)cccc32)n1
b = CC(NC(=O)c1cccc2c1ccn2-c1ccnc(N)n1)c1ccccc1 (stereo not drawn) [drawing 177]
Input pair: a , b . Output: entry with lower pIC50. Reply with the label of the item you choose.
a
(a: 5.17, b: 5.77)

1 = COCCOc1cccc(CNC(=O)c2cccc3c2ccn3-c2ccnc(N)n2)c1
2 = COc1ccc2c(ccn2-c2ccnc(N)n2)c1
Kindly identify the item with the lower pIC50 figure among these two: 1 and 2 Kindly state the label of the option you pick.
1
(1: 5.03, 2: 6.40)

1 = CC1Cc2cc(F)ccc2N1c1ccnc(N)n1 (stereo not drawn)
2 = COc1cccc(CNS(=O)(=O)c2cccc(Nc3ccnc(N)n3)c2)c1
3 = CS(=O)(=O)c1cccc(Nc2ccnc(N)n2)c1
4 = COc1cccc([C@@H](C)NC(=O)c2cccc3c2ccn3-c2ccnc(N)n2)c1
Ascending sort, pIC50. List labels; respect the requested ordering.
2, 3, 1, 4
(2: 4.48, 3: 5.17, 1: 6.40, 4: 6.67)

* * *

- SUBJECT OF TEST: UniProtKB Q13464
- ASSAY PROTOCOL: Z-lyte FRET assay to measure kinase inhibition, ROCK1
- Type: biochemical
- CONDITION CONTEXT: hydrochloride; read-out: ROCK1 IC50
Structures can show the parent of a compound that is named as a salt.
READOUT NAME: IC50 (µM)
Hi! Could you send only the number? It should be in µM, unit omitted.

Would you kindly share the measured IC50 for Nc1nccc(Nc2ccc(S(N)(=O)=O)cc2)n1 [1aa, hydrochloride] ?
38
